Test system: LoVo
EXPERIMENT SUMMARY: Cancer cell line panel proliferation (CellTiter-Glo)
Assay type: cell-based
ASSAY SETUP: Homo sapiens, Large intestine/Colorectum, 72 hours
MEASURED PROPERTY: IC50 (nM)
Please respond with the number in nM and leave the unit unwritten.

Notebook: CN(C)CCNC(=O)c1ccc(-c2ccc(-c3ccc(Cl)cc3)n2-c2ccccc2C(F)(F)F)cc1 (single isomer, unassigned) [Atropisomer A-2] , IC50 read as 540

---

System: SK-MES-1
EXPERIMENT SUMMARY: Cancer cell line panel proliferation (CellTiter-Glo)
Type: cell-based
ASSAY SETUP: Homo sapiens; SK-MES-1, Lung, 72 hours
MEASURED PROPERTY: pIC50
# pIC50: negative log10 of molar concentration; output just the value

Entry CN(C)CCNC(=O)c1ccc(-c2ccc(-c3ccc(Cl)cc3)n2-c2ccccc2C(F)(F)F)cc1 (single isomer, unassigned) [Atropisomer A-2] , pIC50 reported as 6.44

---

System: U87MG Human Glioblastoma Cancer Cell
EXPERIMENT SUMMARY: U87MG cell viability (SRB assay)
Format: cell-based
ASSAY SETUP: Homo sapiens, U-87 MG, 72 hours, read-out: IC50 for inhibition of cell growth
Procedure: The following protocol was used to measure the effects of atropisomers A-1 and A-2 on U87MG cell viability. U87MG cells were grown in their recommended growth media/supplements (ATCC). […] Percentage viability was calculated against the mean of the DMSO treated control samples, and IC50 values for inhibition of cell growth were calculated using GraphPad Prism software by nonlinear regression (4 parameter logistic equation).
MEASURED PROPERTY: IC50 (nM)
# value in nM; strip the unit string

Briefly, IC50 measured for CN(C)CCNC(=O)c1ccc(-c2ccc(-c3ccc(Cl)cc3)n2-c2ccccc2C(F)(F)F)cc1 (single isomer, unassigned) [Atropisomer A-2] : 220

---

System: JVM-2
EXPERIMENT SUMMARY: Cancer cell line panel proliferation (CellTiter-Glo)
Format: cell-based
ASSAY SETUP: Homo sapiens; JVM-2, Blood/Lymphoma, 72 hours
MEASURED PROPERTY: IC50 (nM)
Supply the numeric figure in nM, leaving out any unit text.

Entry CN(C)CCNC(=O)c1ccc(-c2ccc(-c3ccc(Cl)cc3)n2-c2ccccc2C(F)(F)F)cc1 (single isomer, unassigned) [Atropisomer A-2] ; assay system JVM-2; IC50 recorded at 380

---

System: A549
EXPERIMENT SUMMARY: Cancer cell line panel proliferation (CellTiter-Glo)
Format: cell-based
ASSAY SETUP: A549, Lung, 72 hours
MEASURED PROPERTY: IC50
Answer by giving the amount and then stating its unit.

Input CN(C)CCNC(=O)c1ccc(-c2ccc(-c3ccc(Cl)cc3)n2-c2ccccc2C(F)(F)F)cc1 (single isomer, unassigned; atropisomer a) [Atropisomer A-1] . Output IC50: 9.19 µM

---

System: SW620
EXPERIMENT SUMMARY: Cancer cell line panel proliferation (CellTiter-Glo)
Type: cell-based
ASSAY SETUP: SW620, Large intestine/Colorectum, 72 hours
MEASURED PROPERTY: pIC50
Recall that pIC50 is obtained by taking minus log10 of the concentration measured in molar.

Noted for CN(C)CCNC(=O)c1ccc(-c2ccc(-c3ccc(Cl)cc3)n2-c2ccccc2C(F)(F)F)cc1 (single isomer, unassigned; atropisomer a) [Atropisomer A-1] : its pIC50 reads 5.08

---

Tested on: Daudi
EXPERIMENT SUMMARY: Cancer cell line panel proliferation (CellTiter-Glo)
Format: cell-based
ASSAY SETUP: Homo sapiens, Blood/Lymphoma, 72 hours
MEASURED PROPERTY: pIC50
Field pIC50 (float): negative decimal logarithm of the concentration in molar.

Input CN(C)CCNC(=O)c1ccc(-c2ccc(-c3ccc(Cl)cc3)n2-c2ccccc2C(F)(F)F)cc1 (single isomer, unassigned) [Atropisomer A-2] . Output pIC50: 6.41

---

System: RKO
EXPERIMENT SUMMARY: Cancer cell line panel proliferation (CellTiter-Glo)
Type: cell-based
ASSAY SETUP: Homo sapiens, Large intestine/Colorectum, 72 hours
Experimental: Screening against diverse cancer cell lines was performed to identify tumour types displaying sensitivity to atropisomers A-1 and A-2. A panel of 48 cancer-derived cell lines was screened in a high-throughput proliferation assay using dilutions of atropisomers A-1/A-2. […] IC50 values were calculated by fitting the dose-response data using a nonlinear regression model.
MEASURED PROPERTY: pIC50
Recall that pIC50 is obtained by taking minus log10 of the concentration measured in molar.

The compound listed as CN(C)CCNC(=O)c1ccc(-c2ccc(-c3ccc(Cl)cc3)n2-c2ccccc2C(F)(F)F)cc1 (single isomer, unassigned) [Atropisomer A-2] has a reported pIC50 of 6.80

---

Test system: U-2932
EXPERIMENT SUMMARY: Cancer cell line panel proliferation (CellTiter-Glo)
Type: cell-based
ASSAY SETUP: U-2932, Blood/Lymphoma, 72 hours
MEASURED PROPERTY: pIC50
In plain terms, pIC50 is the concentration in mol/L turned into minus its base-10 logarithm.

Quick note, pIC50 for CN(C)CCNC(=O)c1ccc(-c2ccc(-c3ccc(Cl)cc3)n2-c2ccccc2C(F)(F)F)cc1 (single isomer, unassigned; atropisomer a) [Atropisomer A-1] landed at 5.35

---

Tested on: D283 Med
EXPERIMENT SUMMARY: Cancer cell line panel proliferation (CellTiter-Glo)
Type: cell-based
ASSAY SETUP: Homo sapiens, Brain&Nerves, 72 hours
Method: Screening against diverse cancer cell lines was performed to identify tumour types displaying sensitivity to atropisomers A-1 and A-2. A panel of 48 cancer-derived cell lines was screened in a high-throughput proliferation assay using dilutions of atropisomers A-1/A-2. […] IC50 values were calculated by fitting the dose-response data using a nonlinear regression model.
MEASURED PROPERTY: IC50 (nM)
Answer with a number only, understood to be in nM.

Form field IC50, entry CN(C)CCNC(=O)c1ccc(-c2ccc(-c3ccc(Cl)cc3)n2-c2ccccc2C(F)(F)F)cc1 (single isomer, unassigned) [Atropisomer A-2] : 310

---

Test system: RKO
EXPERIMENT SUMMARY: Cancer cell line panel proliferation (CellTiter-Glo)
Format: cell-based
ASSAY SETUP: Large intestine/Colorectum, 72 hours
MEASURED PROPERTY: IC50 (µM)
Write down the numeric answer in µM and omit the unit.

GET /value?item= CN(C)CCNC(=O)c1ccc(-c2ccc(-c3ccc(Cl)cc3)n2-c2ccccc2C(F)(F)F)cc1 (single isomer, unassigned; atropisomer a) [Atropisomer A-1] &field=IC50 returns 6.17

---

Tested on: HBL-1
EXPERIMENT SUMMARY: Cancer cell line panel proliferation (CellTiter-Glo)
Format: cell-based
ASSAY SETUP: HBL-1, Blood/Lymphoma, 72 hours
MEASURED PROPERTY: IC50
Numeric answer plus unit only.

Kindly note the recorded IC50 for CN(C)CCNC(=O)c1ccc(-c2ccc(-c3ccc(Cl)cc3)n2-c2ccccc2C(F)(F)F)cc1 (single isomer, unassigned; atropisomer a) [Atropisomer A-1] , which is 9.94 µM

---

Test system: A-172
EXPERIMENT SUMMARY: Cancer cell line panel proliferation (CellTiter-Glo)
Assay type: cell-based
ASSAY SETUP: Homo sapiens; A-172, Brain&Nerves, 72 hours
MEASURED PROPERTY: IC50 (nM)
I only need the number, in nM, no unit after it.

// field: IC50; key: CN(C)CCNC(=O)c1ccc(-c2ccc(-c3ccc(Cl)cc3)n2-c2ccccc2C(F)(F)F)cc1 (single isomer, unassigned) [Atropisomer A-2] ; value = 340
